Item-by-item account of MIC
system: Mycobacterium tuberculosis H37Rv; test: Antimycobacterial microdilution broth MIC (Alamar Blue); format: cell-based; conditions: Mycobacterium tuberculosis, H37RV, pH 6.6, M. tuberculosis H37Rv, Middlebrook 7H9 pH 6.6

Below, each entry is followed by its recorded MIC result.
compound	obs value
Nc1nccnc1C(=O)NCc1ccc(C(F)(F)F)cc1	50 to 100 µg/mL
CCCCCCCNC(=O)c1nccnc1N [Compound 11, 3-Amino-N-heptylpyrazine-2-carboxamide]	50 µg/mL

Identify the reported MIC for the following entry. `CCc1ccc(NC(=O)c2nccnc2N)cc1`
> 100 µg/mL

Identify measured MIC corresponding to `Nc1nccnc1C(=O)NCc1ccc(Cl)c(Cl)c1`
> 100 µg/mL

###

experiment: In vitro cytotoxicity, CellTiter 96 Aqueous One; settings: human
readout type: IC50 at 24 h

molecule	obs value
Nc1nccnc1C(=O)Nc1ccc(C(F)(F)F)cc1	41.4 µM
COc1ccc(NC(=O)c2nccnc2N)c(OC)c1	> 50 µM
CCc1ccc(NC(=O)c2nccnc2N)cc1	> 250 µM

Complete the entry with IC50 at 24 h for CCCCCCNC(=O)c1nccnc1N [Compound 10, 3-Amino-N-hexylpyrazine-2-carboxamide]
389 µM

###

assay: Lipophilicity by reverse phase HPLC (log k); conditions: RP-HPLC C18, MeOH 70% / H2O 30%, 30 °C
readout type: log k
// no unit, no text: just the number

Recorded results for 4 compounds are shown here.
compound	log k
Nc1nccnc1C(=O)Nc1ccccc1 [Compound 13, 3-Amino-N-phenylpyrazine-2-carboxamide]	0.189
Cc1ccccc1CNC(=O)c1nccnc1N	0.278
Nc1nccnc1C(=O)Nc1ccc(C(F)(F)F)cc1	0.525
Cc1ccc(C)c(NC(=O)c2nccnc2N)c1	0.778

Could you now look at the following compound, please?
Answer with reported log k of `Nc1nccnc1C(=O)NCc1cccc(C(F)(F)F)c1`
0.282

###

Overview of recorded MIC Mtb for various compounds
tested on: Mycobacterium tuberculosis H37Rv; assay: Antimycobacterial microdilution broth MIC (Alamar Blue); assay type: cell-based; conditions: M. tuberculosis H37Rv, Middlebrook 7H9 pH 6.6
Just the number in µg/mL, nothing appended.

Past entries and their recorded results:
smiles	display unit	obs value
Nc1nccnc1C(=O)NCc1cccc(C(F)(F)F)c1	µg/mL	50
COc1ccc(CNC(=O)c2nccnc2N)cc1	µg/mL	100
Cc1ccc(CNC(=O)c2nccnc2N)cc1	µg/mL	100

Identify measured MIC Mtb associated with `Nc1nccnc1C(=O)NCc1ccc(C(F)(F)F)cc1`
50

###

assay: Lipophilicity by reverse phase HPLC (log k); conditions: RP-HPLC C18, MeOH 70% / H2O 30%, 30 °C
readout type: log k
Reply with just the number.

molecule	readout type	obs value
CCc1ccc(NC(=O)c2nccnc2N)cc1 [Compound 16]	log k	0.623
Nc1nccnc1C(=O)Nc1ccc(Cl)c(Cl)c1 [Compound 19]	log k	0.778
CCCCCCCCNC(=O)c1nccnc1N [Compound 12, 3-Amino-N-octylpyrazine-2-carboxamide]	log k	1.057
Nc1nccnc1C(=O)NCc1ccc(Cl)c(Cl)c1 [Compound 6]	log k	0.493
Nc1nccnc1C(=O)Nc1ccc(F)cc1F [Compound 18]	log k	0.422
COc1ccc(CNC(=O)c2nccnc2N)cc1 [Compound 4]	log k	0.026

Determine from records and report log k for COc1ccc(NC(=O)c2nccnc2N)c(OC)c1 [Compound 17]
0.37

Dear colleague, please send me the reported log k for CCCCCCNC(=O)c1nccnc1N [Compound 10, 3-Amino-N-hexylpyrazine-2-carboxamide] when you can.
0.569
